Each entry below carries its reported pIC50.
- Target Entity: human PCSK9 / human LDLR EGFa domain (Homo sapiens, UniProt Q8NBP7)
- Sequence (Q8NBP7 153-692): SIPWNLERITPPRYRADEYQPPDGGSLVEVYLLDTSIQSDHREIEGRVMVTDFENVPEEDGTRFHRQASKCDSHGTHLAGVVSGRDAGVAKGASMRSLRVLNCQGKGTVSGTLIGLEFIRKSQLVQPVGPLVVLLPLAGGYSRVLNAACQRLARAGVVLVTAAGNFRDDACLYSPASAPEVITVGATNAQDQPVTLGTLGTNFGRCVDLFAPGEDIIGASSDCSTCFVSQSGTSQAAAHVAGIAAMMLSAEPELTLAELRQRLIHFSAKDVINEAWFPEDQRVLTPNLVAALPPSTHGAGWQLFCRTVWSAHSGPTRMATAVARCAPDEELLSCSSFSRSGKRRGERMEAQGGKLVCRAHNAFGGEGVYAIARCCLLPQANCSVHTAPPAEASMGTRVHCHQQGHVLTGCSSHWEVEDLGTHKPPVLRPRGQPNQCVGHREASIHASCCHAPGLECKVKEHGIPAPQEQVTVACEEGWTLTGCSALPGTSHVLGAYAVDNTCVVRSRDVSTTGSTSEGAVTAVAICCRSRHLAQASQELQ
- Measurement Protocol: TR-FRET assay of inhibition of the PCSK9-LDLR protein-protein interaction
- Protocol Conditions: 20 nM human PCSK9, 20 nM human LDLR EGFa domain, 2 hours room temperature
pIC50: −log10 of the molar value. Numbered stars: 1 amine (or outer) side, 2 acyl side, 3 side chain; on linkers, the order of the positions; unused ones are H or OH. Bridge positions count the residues as written; N and C are the ends. Square brackets hold non-standard residues; d marks the D form. Peptide text beside a SMILES is read from it. Phe(4-tBu) = CC(C)(C)c1ccc(C[C@H](N)C(=O)O)cc1; Trp(5-F) = N[C@@H](Cc1c[nH]c2ccc(F)cc12)C(=O)O; Pro(trans-4-F) = O=C(O)[C@@H]1C[C@@H](F)CN1; αMeW = C[C@](N)(Cc1c[nH]c2ccccc12)C(=O)O; X1 = O=C(CCSCc1cccc(CSCCN[*:1])c1)[*:2]; mXylylene = c1cc(C[*:1])cc(C[*:2])c1; Bta = N[C@@H](Cc1csc2ccccc12)C(=O)O; NMeY = CN[C@@H](Cc1ccc(O)cc1)C(=O)O; X3 = O=C(CCSC/C=C/CSCCN[*:1])[*:2]; hhPhe = N[C@@H](CCCc1ccccc1)C(=O)O; Cha = N[C@@H](CC1CCCCC1)C(=O)O; αMeP = C[C@@]1(C(=O)O)CCCN1; Mpa = O=C(O)CCS
Quantity: pIC50

Molecule | Target Entity | Quantity | Test Result
C[C@@H]1NC(=O)[C@@H]2CCCN2C(=O)[C@H](Cc2csc3ccccc23)NC(=O)[C@H](Cc2c[nH]c3ccc(F)cc23)NC(=O)CNC(=O)[C@H](CCCCN)NC(=O)CCSCc2cccc(c2)CSC[C@@H](C(N)=O)NC(=O)[C@@H]2CCCN2C(=O)[C@H](Cc2ccc(O)cc2)NC1=O [Compound 024] ([Mpa]KG[Trp(5-F)][Bta]PAYPC-NH2; linker 1-10 via mXylylene) | human PCSK9 / human LDLR EGFa domain (Homo sapiens, UniProt Q8NBP7) | pIC50 | 7.00 to 9.00
CN1C(=O)[C@H](Cc2cnc[nH]2)NC(=O)[C@@H]2CCCN2C(=O)[C@H](Cc2c[nH]c3ccc(F)cc23)NC(=O)[C@H](CC2CCCCC2)NC(=O)CNC(=O)[C@H](CCCCN)NC(=O)CCSCc2cccc(c2)CSCCNC(=O)[C@]2(C)CCCN2C(=O)[C@@H]1Cc1ccc(O)cc1 [Compound 106] (cyclo([Cha][Trp(5-F)]PH[NMeY][αMeP][X1]KG)) | human PCSK9 / human LDLR EGFa domain (Homo sapiens, UniProt Q8NBP7) | pIC50 | 6.00 to 7.00
C[C@@H]1NC(=O)[C@@H]2CCCN2C(=O)[C@H](Cc2c[nH]c3ccc(F)cc23)NC(=O)[C@H](Cc2c[nH]c3ccc(F)cc23)NC(=O)[C@@H](C)NC(=O)[C@@H]2CCCN2C(=O)CCSCc2cccc(c2)CSCCNC(=O)[C@@H]2CCCN2C(=O)[C@H](Cc2ccc(O)cc2)N(C)C1=O [Compound 052] (cyclo(A[NMeY]P[X1]P[dA][Trp(5-F)][Trp(5-F)]P)) | human PCSK9 / human LDLR EGFa domain (Homo sapiens, UniProt Q8NBP7) | pIC50 | 6.00 to 7.00
C[C@@H]1NC(=O)CCSCc2cccc(c2)CSCCNC(=O)[C@@H]2CCCN2C(=O)[C@H](Cc2ccc(O)cc2)NC(=O)[C@H](C)NC(=O)[C@@H]2CCCN2C(=O)[C@H](Cc2c[nH]c3ccc(F)cc23)NC(=O)[C@H](Cc2c[nH]c3ccc(F)cc23)NC(=O)[C@@H](C)NC1=O [Compound 058] (cyclo(AYP[X1]A[dA][Trp(5-F)][Trp(5-F)]P)) | human PCSK9 / human LDLR EGFa domain (Homo sapiens, UniProt Q8NBP7) | pIC50 | 4.30 to 4.68
C[C@@H]1NC(=O)[C@@H]2CCCN2C(=O)[C@H](Cc2ccc(C(C)(C)C)cc2)NC(=O)[C@H](Cc2c[nH]c3ccc(F)cc23)NC(=O)CNC(=O)[C@H](CCCCN)NC(=O)CCSCc2cccc(c2)CSC[C@@H](C(N)=O)NC(=O)[C@@H]2CCCN2C(=O)[C@H](Cc2ccc(O)cc2)NC1=O [Compound 016] ([Mpa]KG[Trp(5-F)][Phe(4-tBu)]PAYPC-NH2; linker 1-10 via mXylylene) | human PCSK9 / human LDLR EGFa domain (Homo sapiens, UniProt Q8NBP7) | pIC50 | 7.00 to 9.00
C[C@@H]1NC(=O)[C@@H]2C[C@@H](F)CN2C(=O)[C@H](Cc2c[nH]c3ccc(F)cc23)NC(=O)[C@H](Cc2c[nH]c3ccc(F)cc23)NC(=O)[C@@H](C)NC(=O)[C@H](CCCCN)NC(=O)CCSCc2cccc(c2)CSC[C@@H](C(N)=O)NC(=O)[C@@H]2CCCN2C(=O)[C@H](Cc2ccc(O)cc2)NC1=O [Compound 037] ([Mpa]K[dA][Trp(5-F)][Trp(5-F)][Pro(trans-4-F)]AYPC-NH2; linker 1-10 via mXylylene) | human PCSK9 / human LDLR EGFa domain (Homo sapiens, UniProt Q8NBP7) | pIC50 | 6.00 to 7.00
C[C@@H]1NC(=O)[C@@H]2CCCN2C(=O)[C@](C)(Cc2c[nH]c3ccccc23)NC(=O)[C@H](Cc2c[nH]c3ccc(F)cc23)NC(=O)CNC(=O)[C@H](CCCCN)NC(=O)CCSCc2cccc(c2)CSC[C@@H](C(N)=O)NC(=O)[C@@H]2CCCN2C(=O)[C@H](Cc2ccc(O)cc2)NC1=O [Compound 023] ([Mpa]KG[Trp(5-F)][αMeW]PAYPC-NH2; linker 1-10 via mXylylene) | human PCSK9 / human LDLR EGFa domain (Homo sapiens, UniProt Q8NBP7) | pIC50 | 4.92 to 6.00
NCCCC[C@@H]1NC(=O)CCSCc2cccc(c2)CSC[C@@H](C(N)=O)NC(=O)[C@@H]2CCCN2C(=O)[C@@H]2CCCN2C(=O)[C@@H]2CCCN2C(=O)[C@@H]2CCCN2C(=O)[C@H](Cc2c[nH]c3ccc(F)cc23)CC(=O)[C@H](Cc2c[nH]c3ccc(F)cc23)NC(=O)CNC1=O | human PCSK9 / human LDLR EGFa domain (Homo sapiens, UniProt Q8NBP7) | pIC50 | 4.92 to 6.00
C[C@@H]1NC(=O)[C@@H]2CCCN2C(=O)[C@H](Cc2c[nH]c3ccc(F)cc23)NC(=O)[C@H](Cc2c[nH]c3ccc(F)cc23)NC(=O)CNC(=O)[C@H](CCCCN)NC(=O)CCSCc2cccc(c2)CSC[C@@H](C(N)=O)NC(=O)[C@@H]2CCCN2C(=O)[C@@H]2CCCN2C1=O [Compound 032] ([Mpa]KG[Trp(5-F)][Trp(5-F)]PAPPC-NH2; linker 1-10 via mXylylene) | human PCSK9 / human LDLR EGFa domain (Homo sapiens, UniProt Q8NBP7) | pIC50 | 6.00 to 7.00
C[C@@H]1NC(=O)[C@@H]2CCCN2C(=O)[C@H](Cc2c[nH]c3ccc(F)cc23)NC(=O)[C@H](Cc2c[nH]c3ccc(F)cc23)NC(=O)[C@@H](C)NC(=O)[C@H](CCCCN)NC(=O)CCSC/C=C/CSCCNC(=O)[C@]2(C)CCCN2C(=O)[C@H](Cc2ccc(O)cc2)NC1=O [Compound 045] (cyclo(AY[αMeP][X3]K[dA][Trp(5-F)][Trp(5-F)]P)) | human PCSK9 / human LDLR EGFa domain (Homo sapiens, UniProt Q8NBP7) | pIC50 | 7.00 to 9.00
C[C@@H]1NC(=O)[C@@H]2CCCN2C(=O)[C@H](CCCc2ccccc2)NC(=O)[C@H](Cc2c[nH]c3ccc(F)cc23)NC(=O)CNC(=O)[C@H](CCCCN)NC(=O)CCSCc2cccc(c2)CSC[C@@H](C(N)=O)NC(=O)[C@@H]2CCCN2C(=O)[C@H](Cc2ccc(O)cc2)NC1=O [Compound 013] ([Mpa]KG[Trp(5-F)][hhPhe]PAYPC-NH2; linker 1-10 via mXylylene) | human PCSK9 / human LDLR EGFa domain (Homo sapiens, UniProt Q8NBP7) | pIC50 | 7.00 to 9.00
